# targetSystem: Grb2 SH2 (UniProt P62993)
# protocolDetails: SH2 binding enrichment of the phosphorylated peptide, bacterial display (enrichment ratio); higher = better substrate or ligand; peptides without Tyr show the background
measuredEndpoint: SH2 binding enrichment

Sample answers from the record:
Recall and state the measured SH2 binding enrichment for CSEEMYCLMLQ [RET_Y981_R982C] .
0.943

Recall and state the measured SH2 binding enrichment for EGTGHYLCNAC [GATA5_Y208_D203E] .
1.09

Recall and state the measured SH2 binding enrichment for KYVVVYFREID [IL17RB_Y447] .
1.62

Recall and state the measured SH2 binding enrichment for SARFPYLMAEK [LDHB_Y173_R172P] .
0.912

Recall and state the measured SH2 binding enrichment for QFLMMYVWSAS [ABCD1_Y337_K336M] .
0.929

[A] ENAGYYFRVSA
[B] KGPGEYVNIEF [IRS1_Y896_S892G]
Could you point out whether the larger SH2 binding enrichment belongs to A or to B ? Write the label of whichever entry you select.
B

[I] ADLVQYFMEHH [PTPN11_Y80_E76D_YF]
[II] PQGVRYIFTID [DCX_Y103_YF]
Which entry shows the lesser value of SH2 binding enrichment here, I or II ? Write the label of whichever entry you select.
II
(II: 0.602, I: 0.902)

----------
# targetSystem: EPHB1 (UniProt P54762)
# Sequence (P54762 whole entry, looked up): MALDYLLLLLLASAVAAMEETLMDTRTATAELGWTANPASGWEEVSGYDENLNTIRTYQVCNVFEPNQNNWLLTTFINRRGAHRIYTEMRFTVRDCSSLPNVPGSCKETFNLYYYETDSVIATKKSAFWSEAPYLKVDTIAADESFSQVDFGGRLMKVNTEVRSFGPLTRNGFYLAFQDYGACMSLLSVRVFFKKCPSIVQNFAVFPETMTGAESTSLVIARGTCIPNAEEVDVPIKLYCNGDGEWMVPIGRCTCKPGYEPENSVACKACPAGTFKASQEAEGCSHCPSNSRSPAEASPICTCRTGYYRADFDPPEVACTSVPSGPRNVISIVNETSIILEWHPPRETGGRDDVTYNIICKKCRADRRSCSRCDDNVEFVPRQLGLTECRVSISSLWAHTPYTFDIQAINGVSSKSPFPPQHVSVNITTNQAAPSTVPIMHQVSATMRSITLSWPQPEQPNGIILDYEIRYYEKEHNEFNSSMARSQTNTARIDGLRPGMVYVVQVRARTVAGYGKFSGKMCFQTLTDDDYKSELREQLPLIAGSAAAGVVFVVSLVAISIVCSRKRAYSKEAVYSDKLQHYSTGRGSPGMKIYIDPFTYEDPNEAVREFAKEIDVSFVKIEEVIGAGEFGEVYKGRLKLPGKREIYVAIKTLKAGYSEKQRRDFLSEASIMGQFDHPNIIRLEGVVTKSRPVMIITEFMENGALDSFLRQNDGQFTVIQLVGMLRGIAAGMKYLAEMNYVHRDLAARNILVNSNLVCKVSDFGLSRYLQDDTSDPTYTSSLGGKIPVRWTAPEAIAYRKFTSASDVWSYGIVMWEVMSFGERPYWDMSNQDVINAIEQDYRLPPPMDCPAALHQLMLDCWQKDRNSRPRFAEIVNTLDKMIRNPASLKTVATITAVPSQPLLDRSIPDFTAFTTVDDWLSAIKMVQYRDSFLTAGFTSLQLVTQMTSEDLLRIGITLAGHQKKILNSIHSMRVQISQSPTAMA
# protocolDetails: phosphorylation enrichment, bacterial display (enrichment ratio); higher = better substrate or ligand; peptides without Tyr show the background
Each entry below lists one item and its recorded phosphorylation enrichment value.
Format: numeric value only, no unit, no commentary.

Recall and state the measured phosphorylation enrichment for DQNVEYKGTVW [FHL1_Y117] .
0.558

Recall and state the measured phosphorylation enrichment for IVKAYYVHARA [AIPL1_Y268_R270H] .
0.567

Recall and state the measured phosphorylation enrichment for CTTIHYNFMCT [TP53_Y234_N239T_YF] .
0.54

Recall and state the measured phosphorylation enrichment for WDLSEYSYKDP [ITGA3_Y237] .
0.424

More entries:
Recall and state the measured phosphorylation enrichment for QGFDTYFGFLL [ARSB_Y165_R160Q_YF] .
4.39

Recall and state the measured phosphorylation enrichment for RCKNHYAAFSV [C1QTNF1_Y145_S143N] .
0.286

Recall and state the measured phosphorylation enrichment for GVYSRYFTTYD [CLCA1_Y661] .
1.12

----------
# targetSystem: Hck (UniProt P08631)
# Sequence (P08631 whole entry, looked up): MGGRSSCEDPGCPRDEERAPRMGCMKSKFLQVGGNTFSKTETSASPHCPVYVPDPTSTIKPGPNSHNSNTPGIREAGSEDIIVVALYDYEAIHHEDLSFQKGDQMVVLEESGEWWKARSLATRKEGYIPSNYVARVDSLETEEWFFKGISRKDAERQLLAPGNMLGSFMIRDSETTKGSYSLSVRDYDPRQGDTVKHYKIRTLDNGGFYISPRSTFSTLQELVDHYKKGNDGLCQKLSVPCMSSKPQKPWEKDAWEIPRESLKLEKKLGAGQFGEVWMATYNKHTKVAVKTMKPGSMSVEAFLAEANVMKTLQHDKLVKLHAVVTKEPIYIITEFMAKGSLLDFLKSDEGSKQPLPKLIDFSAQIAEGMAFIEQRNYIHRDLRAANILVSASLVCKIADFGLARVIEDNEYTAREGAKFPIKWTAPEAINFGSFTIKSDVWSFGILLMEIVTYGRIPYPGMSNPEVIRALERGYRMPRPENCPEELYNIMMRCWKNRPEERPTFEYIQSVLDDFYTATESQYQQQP
# protocolDetails: phosphorylation enrichment, bacterial display (enrichment ratio); higher = better substrate or ligand; peptides without Tyr show the background
Each entry below lists one item and its recorded phosphorylation enrichment value.
Format: numeric value only, no unit, no commentary.

Sample answers from the record:
Recall and state the measured phosphorylation enrichment for TQRPFYKGGGG [TYROBP_Y112_YF] .
0.42

Recall and state the measured phosphorylation enrichment for EQWRAYLEGTC [HLA-C_Y183_L180W] .
0.507

Recall and state the measured phosphorylation enrichment for LIGTPYWMAPE [PAK5_Y608_V604I] .
1

Recall and state the measured phosphorylation enrichment for TIWDSYTTNKV [GNB1_Y85_I80T] .
0.473

Recall and state the measured phosphorylation enrichment for RLCQDYDTIGP [ANK1_Y1073] .
1.61

Now take the following sequence into account.
Recall and state the measured phosphorylation enrichment for GSETPYVDRTP [ESS2_Y335] .
0.429
